experiment: xn = mol fraction of the nth substance listed, in the solute-free solvent; conditions: 328.15 K; x2 = 0.4
measured-metric: solubility (g/100 g solution)

>  <molecule>
O=C(O)c1ccc(C(=O)O)o1 + O + COCCOCCOC

>  <value-measured>
5

$$$$
>  <molecule>
O=C(O)c1ccc(C(=O)O)o1 + O + COCCOC

>  <value-measured>
5.78

$$$$
>  <molecule>
CC(=O)OC(c1ccccc1)C(Cl)(Cl)Cl (configuration not stated) + CC(C)O + O

>  <value-measured>
10.2

$$$$
>  <molecule>
O=C(O)c1ccc(C(=O)O)o1 + C1COCCO1 + O

>  <value-measured>
6.37

$$$$
>  <molecule>
O=C(O)c1ccc(C(=O)O)o1 + C1CCOC1 + O

>  <value-measured>
8.62

$$$$
>  <molecule>
CC(=O)OC(c1ccccc1)C(Cl)(Cl)Cl (configuration not stated) + CCO + O

>  <value-measured>
5.65

$$$$
>  <molecule>
CC(=O)OC(c1ccccc1)C(Cl)(Cl)Cl (configuration not stated) + CC(=O)O + O

>  <value-measured>
3.12

$$$$

FYI, the data here is from the CheMixHub drug solubility set.
